The values you see were collected from the Human Domainome abundance scans (Beltran et al. 2025).

B1: GA-binding protein alpha chain, residues 172 to 250; numbered along this chain, Q06546 (parent)
chain: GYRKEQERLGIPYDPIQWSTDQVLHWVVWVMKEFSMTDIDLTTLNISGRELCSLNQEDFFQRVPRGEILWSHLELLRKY

Variants of: B1
Assay Explanation: abundance fitness (aPCA) (normalised: wild type 0, dead -1); higher = more abundant; growth selection in yeast, the domain comes from the species named
Reported Conditions: Homo sapiens
Outcome: 1.0 for abundance fitness of at least -0.4; 0.0 for anything lower.

Worked examples follow.
Lookup: Would you say E7S shows abundance fitness at minimum -0.4?
Found: 1.0

Lookup: // repeat for K4I and report
Found: 1.0

Lookup: Please answer likewise for H72R
Found: 1.0

Turning now to a further variant:
Lookup: Is it the case that T20V has abundance fitness reaching or exceeding -0.4?
Found: 1.0
